system: T1, StrepSumo-tagged Mit1CII I11R (S. pombe, UniProt Q9P793 1-81, I11R)
T1 construct: Mit1, S. pombe, CII, residues 1-81, I11R; also called Mit1I11R; Mit1 I11R; source: E. coli BL21(DE3) or Rosetta (DE3), purified (Streptactin, SEC); not shown: Strep-SUMO, N-terminal, kept
T1 sequence (looked up): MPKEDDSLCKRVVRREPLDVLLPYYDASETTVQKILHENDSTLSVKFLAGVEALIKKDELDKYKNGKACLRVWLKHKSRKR
measurement-description: ITC; 25°C; 400 mM NaCl, 50 mM Tris-HCl pH 7.5, 5 mM β-mercaptoethanol; Chp2 or Swi6 at 100 to 500 µM injected into the cell holding StrepSumo-tagged Mit1 constructs at 5 to 50 µM; VP-ITC or Nano ITC (Mit1CIIΔCDL)
run-conditions: both partners purified
observation-type: Kd (µM)
One number for each entry, in µM.

Ask: Looking for the measured Kd of Chp2CSD (expressed alone, tag removed, for ITC) (domain or fragment, S. pombe, Chp2, S. pombe, chromoshadow domain (CSD); limits 316-380 are printed for the crystallised CSD construct, not for the ITC sample; source: E. coli BL21(DE3) or Rosetta (DE3), purified (Streptactin, Ulp1, MonoS); not shown: Strep-SUMO, N-terminal, cleaved) KPPFQKKSWEDLVDCVKTVQQLDNGKLIAKIKWKNGYVSTHDNIIIHQKCPLKIIEYYEAHIKFT , can you help?
Reply: 21.5
